Cited source for all entries: ChEMBL document CHEMBL1649565

# key: entry, value: MIC90
# Test system: Streptococcus pneumoniae
# ASSAY_TEXT: Antibacterial activity against non-levofloxacin susceptible Streptococcus pneumoniae by CLSI M100-S18 method
# Assay type: functional
A number alone suffices; assume µg/mL.

Worked examples follow.
Recall and state the measured MIC90 for NC[C@H]1O[C@H](O[C@H]2[C@H](O)[C@@H](O[C@H]3O[C@H](CO)[C@@H](O)[C@H](N)[C@H]3O)[C@H](N)C[C@@H]2N)[C@H](N)C[C@@H]1O .
16

Recall and state the measured MIC90 for CC1(C)S[C@@H]2[C@H](NC(=O)Cc3ccccc3)C(=O)N2[C@H]1C(=O)O .
2

Recall and state the measured MIC90 for C[C@H]1COc2c(N3CCN(C)CC3)c(F)cc3c(=O)c(C(=O)O)cn1c23.C[C@H]1COc2c(N3CCN(C)CC3)c(F)cc3c(=O)c(C(=O)O)cn1c23.O .
16

---
Recall and state the measured MIC90 for N[C@@H]1CCCCN(c2c(F)cc3c(=O)c(C(=O)O)cn(C4CC4)c3c2Cl)C1 .
0.5

* * *

# System: Streptococcus intermedius
# ASSAY_TEXT: Antibacterial activity against Streptococcus intermedius by CLSI M100-S18 method
# Assay type: functional
QUANTITY_MEASURED: MIC90

Worked examples follow.
Fill in MIC90 for COc1c(N2CCNC(C)C2)c(F)cc2c(=O)c(C(=O)O)cn(C3CC3)c12 (stereo unspecified) tested with Streptococcus intermedius.
1 µg/mL

Fill in MIC90 for NC[C@H]1O[C@H](O[C@H]2[C@H](O)[C@@H](O[C@H]3O[C@H](CO)[C@@H](O)[C@H](N)[C@H]3O)[C@H](N)C[C@@H]2N)[C@H](N)C[C@@H]1O tested with Streptococcus intermedius.
> 8 µg/mL

Fill in MIC90 for CC[C@H]1OC(=O)[C@H](C)[C@@H](O[C@H]2C[C@@](C)(OC)[C@@H](O)[C@H](C)O2)[C@H](C)[C@@H](O[C@@H]2O[C@H](C)C[C@H](N(C)C)[C@H]2O)[C@](C)(O)C[C@@H](C)CN(C)[C@H](C)[C@@H](O)[C@]1(C)O tested with Streptococcus intermedius.
1 µg/mL

Fill in MIC90 for N[C@@H]1CCCCN(c2c(F)cc3c(=O)c(C(=O)O)cn(C4CC4)c3c2Cl)C1 tested with Streptococcus intermedius.
0.12 µg/mL

Fill in MIC90 for CC1(C)S[C@@H]2[C@H](NC(=O)Cc3ccccc3)C(=O)N2[C@H]1C(=O)O tested with Streptococcus intermedius.
32 µg/mL

---
Fill in MIC90 for C[C@H]1COc2c(N3CCN(C)CC3)c(F)cc3c(=O)c(C(=O)O)cn1c23.C[C@H]1COc2c(N3CCN(C)CC3)c(F)cc3c(=O)c(C(=O)O)cn1c23.O tested with Streptococcus intermedius.
4 µg/mL

* * *

# Test system: Staphylococcus epidermidis
# ASSAY_TEXT: Antibacterial activity against ciprofloxacin-susceptible and methicillin-resistant Staphylococcus epidermidis by CLSI M100-S18 method
# Assay type: functional
QUANTITY_MEASURED: MIC50 (µg/mL)
A number alone suffices; assume µg/mL.

Worked examples follow.
Recall and state the measured MIC50 for C[C@H]1COc2c(N3CCN(C)CC3)c(F)cc3c(=O)c(C(=O)O)cn1c23.C[C@H]1COc2c(N3CCN(C)CC3)c(F)cc3c(=O)c(C(=O)O)cn1c23.O .
0.12

Recall and state the measured MIC50 for N[C@@H]1CCCCN(c2c(F)cc3c(=O)c(C(=O)O)cn(C4CC4)c3c2Cl)C1 .
0.03

Recall and state the measured MIC50 for NC[C@H]1O[C@H](O[C@H]2[C@H](O)[C@@H](O[C@H]3O[C@H](CO)[C@@H](O)[C@H](N)[C@H]3O)[C@H](N)C[C@@H]2N)[C@H](N)C[C@@H]1O .
0.03

Recall and state the measured MIC50 for COc1c(N2CCNC(C)C2)c(F)cc2c(=O)c(C(=O)O)cn(C3CC3)c12 (stereo not given) .
0.06

# context switch: different compound, same MIC50
Recall and state the measured MIC50 for Cc1onc(-c2ccccc2)c1C(=O)N[C@@H]1C(=O)N2[C@@H]1SC(C)(C)[C@@H]2C(=O)O .
0.12
